System: MOLT-4 leukemia
Assay: NCI-60 one-dose screen, 48 h
Conditions: 10 µM unless noted
The panel holds about 83,000 compounds, 20% with a hit somewhere; the sample as a whole holds those more often. Active and inactive are the calls of the source. The calls were made as follows: active = growth percent below 10; inactive = the rest.
Result category, one only: 1 (yes) for active, 0 (no) for inactive

Look over these answered cases.
1) COc1cc2nc(-c3ccc(C(F)(F)F)cc3)cc(OCCCN3CCC(O)CC3)c2cc1OC = 0 (no)
2) C[C@@H]1CN(Cc2ccc(/C=C/c3n[nH]c4ccc5nc(-c6cn[nH]c6C(F)(F)F)c6c(c5c34)CCCC6)cc2)C[C@H](C)O1 = 0 (no)
3) N#Cc1cc(-c2nc3ccccc3s2)c(=O)n(NS(=O)(=O)c2ccc(Cl)cc2)c1N = 0 (no)
4) COc1ccc(-c2c(-c3ccccc3)noc2N)cc1OC = 0 (no)
5) CN(C)Cc1c(-c2ccccc2)[nH]c2ccccc12 = 0 (no)
6) CCN(CC)CCSCCCNc1c(C)cnc2cc(Cl)ccc12 = 0 (no)
7) CCOC(=O)c1cnc2c(cnn2CC)c1NN=C(C)C = 0 (no)
8) CCCC1C(C(=O)OCC)=C(N)Oc2cc(O)ccc21 (configuration not stated) = 0 (no)
9) O=c1nc2n(nc1/C=C/c1ccco1)CC(c1ccc(Cl)cc1)=NN2 = 0 (no)
10) CCCCCCOc1ccc(/C=N/Nc2cc(C)nc3ccc(Br)cc23)cc1 = 1 (yes)

Problem: Answer briefly: the call reported for COc1ccc(C(=O)c2cc3c(N)c(C(=O)Nc4cccc(Br)c4C)sc3nc2C)cc1 in this assay.
Solution: 0 (no)

Problem: Answer briefly: the call reported for O=C1Nc2c(ccc(Cl)c2Cl)/C1=C/c1ccc(F)cc1 in this assay.
Solution: 0 (no)

Problem: Answer briefly: the call reported for COc1ccc(-c2nc(N/N=C/c3ccco3)nc(N3CCOCC3)c2C#N)cc1 in this assay.
Solution: 0 (no)

Problem: Answer briefly: the call reported for CN1CCN(c2cc(F)c(NC3=C(Cl)C(=O)c4ncccc4C3=O)c(F)c2)CC1 in this assay.
Solution: 1 (yes)

Problem: Answer briefly: the call reported for COc1ccc(C2CC(c3cccc(Nc4ccncc4)c3)=NN2c2ccccc2)cc1 (configuration not stated) in this assay.
Solution: 0 (no)

Problem: Answer briefly: the call reported for O=C(CCN1CCCC1)Nc1ccc2c(NCc3ccc(F)cc3)c3ccccc3nc2c1 in this assay.
Solution: 1 (yes)

Problem: Answer briefly: the call reported for COc1cc(C2CC(c3cccc(Nc4ccncc4)c3)=NN2C(C)=O)cc(OC)c1OC (configuration not stated) in this assay.
Solution: 0 (no)

Problem: Answer briefly: the call reported for Cc1ccc(Nc2cc(=S)nc(N)[nH]2)cc1C in this assay.
Solution: 0 (no)

Problem: Answer briefly: the call reported for O=C1CCCCCCCCC(O)C(O)CCCC(c2cccs2)O1 (configuration not stated) in this assay.
Solution: 0 (no)

Problem: Answer briefly: the call reported for C=C(C)[C@@H]1CC[C@]2(C(=O)NCCCN(CCC#N)CCC#N)CC[C@]3(C)[C@H](CC[C@@H]4[C@@]5(C)CCC(=O)C(C)(C)[C@@H]5CC[C@]43C)[C@@H]12 in this assay.
Solution: 0 (no)

Problem: Answer briefly: the call reported for CCn1ccnc1C(=O)/C=C/c1ccc(CC(=O)Nc2ccc(F)cc2)cc1 in this assay.
Solution: 0 (no)

Problem: Answer briefly: the call reported for COc1cc(NCC(C)(O)CN(CC(C)C)CC(C)C)c2nc(C)ccc2c1 (configuration not stated) in this assay.
Solution: 0 (no)

Problem: Answer briefly: the call reported for Cc1n[nH]c(C)c1-c1c(C)n[nH]c1C in this assay.
Solution: 1 (yes)

Problem: Answer briefly: the call reported for COc1cc(OC)cc(C2C3=C(COC3=O)Nc3cc(OC)ccc32)c1 (configuration not stated) in this assay.
Solution: 0 (no)

Problem: Answer briefly: the call reported for Cc1cc(C)c(C=O)c(C)c1 in this assay.
Solution: 0 (no)

Problem: Answer briefly: the call reported for O=C(Nc1nc(-c2ccccc2Cl)cs1)c1cc(-c2ccccc2)nc2ccc(Cl)cc12 in this assay.
Solution: 0 (no)

Problem: Answer briefly: the call reported for O=C(Nc1nc(-c2ccc(Br)cc2)cs1)c1cc(-c2ccc(Br)cc2)nc2ccc(Cl)cc12 in this assay.
Solution: 0 (no)

Problem: Answer briefly: the call reported for O=C(Nc1ccc(Cl)cc1)Nc1ccc(Cl)c(Cl)c1 in this assay.
Solution: 1 (yes)

Problem: Answer briefly: the call reported for CC(N)C(=O)NNc1n[nH]c(=S)n1N (configuration not stated) in this assay.
Solution: 0 (no)

Problem: Answer briefly: the call reported for O=C(CNCCO)Nc1ccc2ncnc(Nc3ccc(OCc4cccc(F)c4)c(Cl)c3)c2c1 in this assay.
Solution: 0 (no)
